tested on: CEM cells HIV-1 protection, formazan growth assay; test: NCI AIDS Antiviral Assay;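 active = compounds giving half or more protection of infected cells from virus-caused growth loss, again on retest; inactive = the rest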
Outcome (select one): active, inactive

compound	qualitative-label
CCN(CC)c1cc2oc(=O)cc(C)c2cc1[N+](=O)[O-]	inactive
Cn1c2ccccc2c2nnc(N/N=C/c3ccccn3)nc21	inactive
O/N=C1/COC(C(F)(F)F)(C(F)(F)F)C1	inactive
O=S(=O)(O)c1cc(N=Nc2ccc(/C=C/c3ccc(N=Nc4cc(S(=O)(=O)O)c5cccnc5c4O)cc3)cc2)c(O)c2ncccc12	active
CC(C)NC(=O)OCc1c(COC(=O)NC(C)C)c(-c2ccc(Cl)c(Cl)c2)n2c1CCC2	inactive

Please let me know the test result on file for O=C1[C@H]2ON(c3ccccc3)C(c3ccc(Cl)cc3)[C@H]2C(=O)N1c1ccc(Cc2ccc(N3C(=O)[C@@H]4ON(c5ccccc5)C(c5ccc(Cl)cc5)[C@@H]4C3=O)cc2)cc1 (stereo not given in full) . inactive

Lab log entry: `Cc1cc(=O)oc2c1c(C)nn2-c1cccc(Cl)c1` — outcome as called in the assay? inactive

Name the outcome recorded for `CO/C(N)=C(\C#N)N=Cc1ccco1` in the assay. inactive

Could you check what this test reported for `CN(NC(=O)/C(=C/c1cc(Cl)cc(Cl)c1O)NC(=O)c1ccccc1)c1cnn(-c2ccccc2)c(=O)c1Cl` ? inactive

What was the test verdict on `COc1ccc(OCc2ccc3nc(-c4ccccc4)c(Cl)nc3c2)cc1` ? inactive

How was `O=c1c2ccccc2oc2ccccc12` classified in this test? inactive

I would be grateful if you could indicate the recorded call for `OCCCN=C1N=C(Cl)/C(=C\c2ccccc2)N1` . inactive

// param item: `CC(=O)CCn1ncc(Cl)c(Cl)c1=O` ; yields the recorded call inactive

Test call, this compound: `O=c1oc2ccccc2c(O)c1C1=N/C(=N/N=C/c2ccc(Cl)cc2)SC1` inactive

Short answer needed: outcome of this test for `O=C(NCCCNCCN1C(=O)c2cccc3cc([N+](=O)[O-])cc(c23)C1=O)c1cc(-c2ccccc2)nc2ccccc12` ? inactive

====

test system: CEM cells HIV-1 protection, formazan growth assay; experiment: NCI AIDS Antiviral Assay
property-label: EC50

Consider the worked cases shown below.
compound	EC50
COc1cc(COC(=O)N[C@H](C(=O)O)C(C)(C)C)c([N+](=O)[O-])cc1OC	> 676 µM
C[N+](C)([O-])C12CC3CC(CC(C3)C1)C2	> 200 µM
N#CI1OC(=O)c2ccccc21	> 200 µM

Return the recorded EC50 value; entry: CC(=O)N1N=C(c2ccc(N=Nc3c(C)nn(-c4ccccc4)c3C)cc2)OC1c1ccc(Cl)cc1 (stereo unspecified) > 18.6 µM

Tell me its EC50 given `O=c1[nH][nH]c(=O)c2c1nc(SCc1ccc(Br)cc1)n2Cc1ccccc1` as the entry. > 214 µM

====

tested on: CEM cells HIV-1 protection, formazan growth assay; test: NCI AIDS Antiviral Assay; settings: measured here: growth of uninfected CEM cells
pIC50: −log10 of the molar value.
property-label: pIC50

molecule	pIC50
O=c1[nH]nc(-c2ccc([N+](=O)[O-])cc2)[nH]1	< 3.70

Return pIC50 for the following molecule: `Nc1ccc(-c2nc3ccc(Cc4ccc5nc(-c6ccc(N)cc6)oc5c4)cc3o2)cc1` < 3.70

Look up and state reported pIC50 for `CC(=O)N(C(C)=O)n1c(Cc2ccc(Cl)cc2)n[nH]c1=O` < 3.70

Find the measured pIC50 of `O=C1/C(=C/c2ccccc2F)Cc2ccccc21` and report it. < 4.66

Give a short answer stating reported pIC50 for `C=CS(=O)(=O)O` . < 3.70

Note down pIC50 recorded for `Nc1ncnc2c1ncn2[C@@H]1C[C@H]1CO` < 3.70

====

Each item that follows carries a reported log10 IC50.
system: CEM cells HIV-1 protection, formazan growth assay; assay: NCI AIDS Antiviral Assay; details: measured here: growth of uninfected CEM cells
In our notation, the value equals log10 of IC50 in µM.

compound	result-value
Cn1c(=O)c2c3ccccc3c(C(=O)c3ccccc3)n2c2ccccc21	0.49

Give a short answer stating reported log10 IC50 for CC(O)C(NC(=O)C1CSSCC(NC(=O)C(Cc2ccccc2)NC(=O)OCC2c3ccccc3-c3ccccc32)C(=O)NC(Cc2ccccc2)C(=O)NC(Cc2cn(C=O)c3ccccc23)C(=O)NC(CCCCNC(=O)OCC2c3ccccc3-c3ccccc32)C(=O)NC(C(C)O)C(=O)N1)C(N)=O (configuration not stated) . 0.81

Name the recorded log10 IC50 of the compound listed here: Cn1/c(=N\N=C2\C=C3CCCCC3(C)CC2)sc2ccccc21 (configuration not stated) 2.19

Provide only the value of recorded log10 IC50 for CC(C)CCC[C@@H](C)C1CCC2[C@@H]3CC=C4C[C@@H](OP(=O)(O)OCCN(C)C)CC[C@]4(C)C3CC[C@@]21C (some centres not stated) 1.07

====

test system: CEM cells HIV-1 protection, formazan growth assay; experiment: NCI AIDS Antiviral Assay; details: measured here: growth of uninfected CEM cells
Where a SMILES comes first, the peptide text is derived from it. [ ]: non-standard residue; d: D form. The star is where a group is joined. ξ: configuration not given here. Boc = CC(C)(C)OC(=O)*; ξV = CC(C)C(N)C(=O)O; OBn = c1ccc(CO*)cc1
property-label: IC50

Known IC50 results, listed for orientation:
compound	system-under-test	IC50
O=C1C2Cc3ccccc3CN2C(=O)N1CN1CCN(CN2C(=O)C3Cc4ccccc4CN3C2=O)CC1 (stereo unspecified)	CEM cells HIV-1 protection, formazan growth assay	> 10 µM
CC(C)(C)[Si](C)(C)OCCc1ccccc1C1CC2(S(=O)(=O)c3ccccc3)ON1CC2S(=O)(=O)c1ccccc1 (stereo unspecified)	CEM cells HIV-1 protection, formazan growth assay	> 16.2 µM
Cc1cc2c(cc1Br)C1(C)CCC(C)C1(C)O2 (stereo unspecified)	CEM cells HIV-1 protection, formazan growth assay	> 50.1 µM
CC(C)C(NC(=O)OC(C)(C)C)C(=O)NCC(=O)OCc1ccccc1 (stereo unspecified) (Boc-[ξV]-Gly-OBn)	CEM cells HIV-1 protection, formazan growth assay	28.2 µM
COc1cc(N=Nc2cc(NC(C)=O)c(N=Nc3ccc(C(=O)O)cc3)cc2S(=O)(=O)O)c(C)cc1N=Nc1ccc(NC(=O)c2ccc(N)cc2)cc1C	CEM cells HIV-1 protection, formazan growth assay	> 100 µM

Retrieve IC50 measured for CC(C)(C)[Si](C)(C)OC1C(C/[N+]([O-])=N\Nc2ccc([N+](=O)[O-])cc2)OC(n2ccc(=O)[nH]c2=O)C1O[Si](C)(C)C(C)(C)C (stereo unspecified) and print it. 1.95 µM

Supply IC50 value. Item: `O=c1[nH]c2cc(C(F)(F)F)ccc2nc1CBr` 6.61 µM

Identify measured IC50 associated with OC(C#CCN1CCCC1)(c1ccccc1)c1ccccc1Cl.[C-]#[O+].[C-]#[O+].[C-]#[O+].[C-]#[O+].[C-]#[O+].[C-]#[O+].[Co].[Co] (stereo unspecified) 5.25 µM

====

System: CEM cells HIV-1 protection, formazan growth assay
Test: NCI AIDS Antiviral Assay
Details: measured here: growth of uninfected CEM cells
Experimental: The ability of compounds to protect human CEM cells from HIV-1 infection is measured as a screen for new compounds capable of inhibiting the HIV virus. Five concentrations of drug were tested on uninfected and infected cells and cell growth was measured using a soluble formazan assay. […] Compounds that provided at least 50% protection were retested. Compounds that provided at least 50% protection on retest were listed as moderately active. […]
pIC50: −log10 of the molar value.
property-label: pIC50

compound	property-label	result-value
CCc1cccc(C)c1NC(=O)C1=C(C)NC(C)=C(C(=O)Nc2c(C)cccc2CC)C1c1ccc2c(c1)OCO2	pIC50	< 4.61

Provide CEM cells HIV-1 protection, formazan growth assay pIC50 reading for `O=C(Nc1ccc(-c2ccccn2)oc1=O)c1ccccc1` . < 3.70

Report measured pIC50 on CEM cells HIV-1 protection, formazan growth assay; entry: O=C1C2=C(CCCCC2)C2CCCCC12O (stereo unspecified) < 3.70

Provide CEM cells HIV-1 protection, formazan growth assay pIC50 reading for COc1ccc(C2ON(c3ccccc3)CC=C2C)cc1 (stereo unspecified) . < 4.45

Would you please give the reported pIC50 of CCOC(=O)CC1NC(=O)CS1 (stereo unspecified) with CEM cells HIV-1 protection, formazan growth assay? < 3.86

// output pIC50; input O=C1COC(C(=O)c2ccccc2)C(=O)N1 (stereo unspecified) ; system CEM cells HIV-1 protection, formazan growth assay < 3.93

Using CEM cells HIV-1 protection, formazan growth assay as the test system, report measured pIC50 of Cc1[nH]c2ccccc2c1C1Cc2ccccc2N1C(=O)/C(Cl)=C/c1ccccc1 (stereo unspecified) . < 5.18

Provide pIC50, tested on CEM cells HIV-1 protection, formazan growth assay, for `N#Cc1c2c(c(Cl)n3c1nc1ccccc13)CCCC2` . < 5.43

Fetch value of pIC50 on CEM cells HIV-1 protection, formazan growth assay for `COc1ccc(NC(=O)C(/C=N\C(=S)NNC(C)=O)=C(\C)O)cc1` . < 3.70

Provide pIC50, tested on CEM cells HIV-1 protection, formazan growth assay, for `Nc1ccccc1C(=O)CCC1C(=O)NC(=S)NC1=O` . < 5.16

Report pIC50 from CEM cells HIV-1 protection, formazan growth assay testing of CCC1C(=O)OCc2ccccc21 (stereo unspecified) < 3.70

For CEM cells HIV-1 protection, formazan growth assay, give the measured pIC50 of the entry `CC1=NN(c2ccccc2)C(=O)C1=Nc1c(C)[nH]n(-c2ccccc2)c1=O` < 3.70

Report value only: pIC50, CEM cells HIV-1 protection, formazan growth assay, `O=c1[nH]nc(-c2ccccc2)n1/N=C/c1ccc([N+](=O)[O-])cc1` < 3.70

Output reported pIC50 of the compound `O=C(CCc1cccc(O)c1)NCCc1cccc(O)c1` on CEM cells HIV-1 protection, formazan growth assay. < 3.70

Identify measured pIC50 obtained with CEM cells HIV-1 protection, formazan growth assay for `Brc1ccc(-c2cnc3nc4[nH]c5ccccc5c4nn23)cc1` . 3.91

Name the value of pIC50 reported for CC1CCCC(C(O)CC2CC(=O)N(c3ccccc3)C(=O)C2)C1=O (stereo unspecified) when tested on CEM cells HIV-1 protection, formazan growth assay. < 3.70

Provide pIC50, tested on CEM cells HIV-1 protection, formazan growth assay, for `O=C(Nc1c(Cl)cc([N+](=O)[O-])cc1Cl)C(=O)C1C(=O)NC(=S)NC1=O` . < 4.05

Fill: pIC50 (CEM cells HIV-1 protection, formazan growth assay) for this compound `Cc1cn(CC(=O)NCCCO)c(=O)[nH]c1=O` < 3.70
